The measured values listed here are drawn from paper PMC3493172.

# target-system: UniProt:P51907
# Sequence (P51907 whole entry): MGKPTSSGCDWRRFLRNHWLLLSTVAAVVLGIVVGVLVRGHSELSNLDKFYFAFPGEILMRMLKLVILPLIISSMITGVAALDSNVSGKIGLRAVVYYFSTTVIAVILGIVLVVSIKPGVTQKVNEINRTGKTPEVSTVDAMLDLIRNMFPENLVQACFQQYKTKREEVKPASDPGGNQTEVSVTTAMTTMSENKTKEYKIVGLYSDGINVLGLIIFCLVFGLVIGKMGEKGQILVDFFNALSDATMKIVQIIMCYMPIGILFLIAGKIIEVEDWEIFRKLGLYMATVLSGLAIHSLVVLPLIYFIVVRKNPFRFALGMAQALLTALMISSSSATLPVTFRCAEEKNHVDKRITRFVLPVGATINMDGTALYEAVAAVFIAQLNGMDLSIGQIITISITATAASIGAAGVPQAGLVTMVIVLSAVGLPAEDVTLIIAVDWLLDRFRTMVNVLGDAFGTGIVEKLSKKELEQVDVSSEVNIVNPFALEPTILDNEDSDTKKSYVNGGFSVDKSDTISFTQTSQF
# protocol-text: Whole-cell current recording of EAAC1WT expressed in HEK 293T cells
# Format: cell-based
# experimental-conditions: read-out: Ki value (range used for estimate); approximate value in discussion
pKi: −log10 of the molar value.
measure-name: pKi

GET /value?item= O=C(O)[C@H]1NC[C@@H]2C(O)=NO[C@@H]21 [(+)-HIP-B] &field=pKi returns ~4.70
